- assay_remarks: Selectivity index, ratio of IC50 for HUVEC cells to MIC for Candida glabrata 537
- Type: toxicity
- test_conditions: human, HUVEC cells versus Candida glabrata 537; read-out: Selectivity Index

- item_smiles: "C[C@@H](OCC#Cc1ccncc1)[C@](O)(Cn1cncn1)c1ccc(F)cc1F"
  selectivity ratio: "> 500"
- item_smiles: "OC(Cn1cncn1)(Cn1cncn1)c1ccc(F)cc1F"
  selectivity ratio: 50
- item_smiles: "C[C@@H](OCC#Cc1ccc(F)cc1F)[C@](O)(Cn1cncn1)c1ccc(F)cc1F"
  selectivity ratio: "> 500"
- item_smiles: "C[C@@H](OCC#Cc1ccc(C#N)cc1)[C@](O)(Cn1cncn1)c1ccc(F)cc1F"
  selectivity ratio: "> 500"

---

- assay_remarks: Metabolic stability in human liver microsomes assessed as half life at 1 uM preincubated for 10 mins followed by NADPH addition and measured upto 60 mins by LC-MS/MS analysis
- Format: ADME, Microsome
- test_conditions: time < 70 min
recorded_metric: half-life at 1 µM (min)

- item_smiles: "Cc1ncc2n1-c1ccc(Cl)cc1C(c1ccccc1F)=NC2"
  recorded_metric: "half-life at 1 µM"
  numeric_value: 4.67
- item_smiles: "C[C@@H](OCC#Cc1ccncc1)[C@](O)(Cn1cncn1)c1ccc(F)cc1F"
  recorded_metric: "half-life at 1 µM"
  numeric_value: 7.35
- item_smiles: "C[C@@H](OCC#Cc1ccc(F)cc1F)[C@](O)(Cn1cncn1)c1ccc(F)cc1F"
  recorded_metric: "half-life at 1 µM"
  numeric_value: 50.8
- item_smiles: "C[C@@H](OCC#Cc1ccc(C#N)cc1)[C@](O)(Cn1cncn1)c1ccc(F)cc1F"
  recorded_metric: "half-life at 1 µM"
  numeric_value: 54.5

---

- assay_remarks: Hemolytic activity in rabbit RBC at 64 ug/ml incubated for 1 hr by absorbance based analysis
- Assay type: toxicity, cell-based, Oryctolagus cuniculus, Erythrocyte
- test_conditions: rabbit red blood cells, at 64 µg/mL, read-out: Activity

- item_smiles: "C[C@@H](OCC#Cc1ccc(C#N)cc1)[C@](O)(Cn1cncn1)c1ccc(F)cc1F"
  hemolysis at 1 h, 64 ug/ml / %: 1.22
- item_smiles: "C[C@@H](OCC#Cc1ccncc1)[C@](O)(Cn1cncn1)c1ccc(F)cc1F"
  hemolysis at 1 h, 64 ug/ml / %: 1.36
- item_smiles: "C[C@@H](OCC#Cc1ccc(F)cc1F)[C@](O)(Cn1cncn1)c1ccc(F)cc1F"
  hemolysis at 1 h, 64 ug/ml / %: 1.32

---

- Tested on: Pichia kudriavzevii
- assay_remarks: Antifungal activity against Candida krusei 4996 assessed as inhibition of fungal growth incubated for 48 hrs by microbroth dilution method
- Type: functional

- molecule: "Cc1cccc(C#CCO[C@H](C)[C@](O)(Cn2cncn2)c2ccc(F)cc2F)c1"
  MIC: "32 µg/mL"
- molecule: "C[C@@H](OCC#Cc1c(Cl)cccc1Cl)[C@](O)(Cn1cncn1)c1ccc(F)cc1F"
  MIC: "16 µg/mL"
- molecule: "COc1ccc(C#CCO[C@H](C)[C@](O)(Cn2cncn2)c2ccc(F)cc2F)cc1"
  MIC: "32 µg/mL"
- molecule: "C[C@@H](OCC#Cc1c(F)cc(F)cc1F)[C@](O)(Cn1cncn1)c1ccc(F)cc1F"
  MIC: "8 µg/mL"
- molecule: "C[C@@H](OCC#Cc1ccc(F)cc1F)[C@](O)(Cn1cncn1)c1ccc(F)cc1F"
  MIC: "4 µg/mL"
- molecule: "C[C@@H](c1nc(-c2ccc(C#N)cc2)cs1)[C@](O)(Cn1cncn1)c1ccc(F)cc1F [RAVUCONAZOLE]"
  MIC: "≤ 0.125 µg/mL"
- molecule: "C[C@@H](OCC#Cc1ccc(Cl)cc1)[C@](O)(Cn1cncn1)c1ccc(F)cc1F"
  MIC: "16 µg/mL"
- molecule: "C[C@@H](OCC#Cc1cc(Cl)ccc1Cl)[C@](O)(Cn1cncn1)c1ccc(F)cc1F"
  MIC: "32 µg/mL"
- molecule: "C[C@@H](OCC#Cc1c(Cl)cc(Cl)cc1Cl)[C@](O)(Cn1cncn1)c1ccc(F)cc1F"
  MIC: "16 µg/mL"
- molecule: "C[C@@H](OCC#Cc1cccc(F)c1F)[C@](O)(Cn1cncn1)c1ccc(F)cc1F"
  MIC: "8 µg/mL"
- molecule: "C[C@@H](OCC#Cc1ccccc1)[C@](O)(Cn1cncn1)c1ccc(F)cc1F"
  MIC: "8 µg/mL"
- molecule: "C[C@@H](OCC#Cc1ccccc1F)[C@](O)(Cn1cncn1)c1ccc(F)cc1F"
  MIC: "8 µg/mL"
- molecule: "C[C@@H](OCC#Cc1ccc(C#N)cc1)[C@](O)(Cn1cncn1)c1ccc(F)cc1F"
  MIC: "8 µg/mL"
- molecule: "C[C@@H](OCC#Cc1cccc(Cl)c1)[C@](O)(Cn1cncn1)c1ccc(F)cc1F"
  MIC: "32 µg/mL"
- molecule: "C[C@@H](OCC#Cc1cc(F)ccc1F)[C@](O)(Cn1cncn1)c1ccc(F)cc1F"
  MIC: "8 µg/mL"
- molecule: "C[C@@H](OCC#Cc1ccc(F)cc1)[C@](O)(Cn1cncn1)c1ccc(F)cc1F"
  MIC: "8 µg/mL"
- molecule: "C[C@@H](OCC#Cc1cccc(Cl)c1Cl)[C@](O)(Cn1cncn1)c1ccc(F)cc1F"
  MIC: "64 µg/mL"
- molecule: "C[C@@H](OCC#Cc1cccc(F)c1)[C@](O)(Cn1cncn1)c1ccc(F)cc1F"
  MIC: "16 µg/mL"
- molecule: "C[C@@H](OCC#Cc1ccc(Cl)cc1Cl)[C@](O)(Cn1cncn1)c1ccc(F)cc1F"
  MIC: "32 µg/mL"
- molecule: "C[C@@H](OCC#Cc1c(F)cccc1F)[C@](O)(Cn1cncn1)c1ccc(F)cc1F"
  MIC: "4 µg/mL"

---

- Tested on: Candida albicans
- assay_remarks: Antifungal activity against fluconazole-resistant Candida albicans 901 assessed as inhibition of fungal growth incubated for 48 hrs by microbroth dilution method
- Type: functional
MIC for assorted molecules
recorded_metric: MIC (µg/mL)

- molecule: "C[C@@H](OCC#Cc1ccc(Cl)cc1)[C@](O)(Cn1cncn1)c1ccc(F)cc1F"
  numeric_value: 32
- molecule: "C[C@@H](OCC#Cc1ccncc1)[C@](O)(Cn1cncn1)c1ccc(F)cc1F"
  numeric_value: 32
- molecule: "C[C@@H](c1nc(-c2ccc(C#N)cc2)cs1)[C@](O)(Cn1cncn1)c1ccc(F)cc1F [RAVUCONAZOLE]"
  numeric_value: 16

---

Quick reference for viability at 24 h, 128 ug/ml among some compounds
- assay_remarks: Cytotoxicity against HUVEC cells assessed as cell survival at 128 ug/ml incubated for 24 hrs by CCK-8 assay relative to control
- Assay type: toxicity, cell-based
- test_conditions: human, at 128 µg/mL, read-out: Survival
recorded_metric: viability at 24 h, 128 ug/ml (%)

- item_smiles: "C[C@@H]1[C@H](O)[C@@H](C)/C=C/C=C/C=C/C=C/C=C/C=C/C=C/[C@H](O[C@@H]2O[C@H](C)[C@@H](O)[C@H](N)[C@@H]2O)C[C@@H]2O[C@](O)(C[C@@H](O)C[C@@H](O)[C@H](O)CC[C@@H](O)C[C@@H](O)CC(=O)O[C@H]1C)C[C@H](O)[C@H]2C(=O)O"
  numeric_value: 26.1
- item_smiles: "C[C@@H](OCC#Cc1ccc(F)cc1F)[C@](O)(Cn1cncn1)c1ccc(F)cc1F"
  numeric_value: 36
- item_smiles: "C[C@@H](OCC#Cc1ccncc1)[C@](O)(Cn1cncn1)c1ccc(F)cc1F"
  numeric_value: 28.7
- item_smiles: "OC(Cn1cncn1)(Cn1cncn1)c1ccc(F)cc1F"
  numeric_value: 43.7
- item_smiles: "C[C@@H](OCC#Cc1ccc(C#N)cc1)[C@](O)(Cn1cncn1)c1ccc(F)cc1F"
  numeric_value: 34.9

---

Cytochrome P450 2C19 (Homo sapiens): reported IC50 for various compounds.
Sequence (P33261 whole entry): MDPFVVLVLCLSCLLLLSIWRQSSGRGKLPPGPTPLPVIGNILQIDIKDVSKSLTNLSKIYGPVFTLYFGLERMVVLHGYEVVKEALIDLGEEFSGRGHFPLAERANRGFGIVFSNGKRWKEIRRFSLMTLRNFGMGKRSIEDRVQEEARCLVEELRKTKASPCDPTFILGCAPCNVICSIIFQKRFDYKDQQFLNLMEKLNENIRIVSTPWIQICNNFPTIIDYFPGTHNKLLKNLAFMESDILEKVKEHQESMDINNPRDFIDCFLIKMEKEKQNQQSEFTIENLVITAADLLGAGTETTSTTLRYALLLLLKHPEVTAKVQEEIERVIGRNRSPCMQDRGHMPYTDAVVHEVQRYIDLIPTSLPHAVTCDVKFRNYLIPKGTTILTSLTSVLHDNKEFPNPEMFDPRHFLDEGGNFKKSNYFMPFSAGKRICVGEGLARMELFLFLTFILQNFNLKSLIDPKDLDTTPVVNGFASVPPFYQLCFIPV
recorded_metric: IC50 (nM)

- item_smiles: "C[C@@H](OCC#Cc1ccc(C#N)cc1)[C@](O)(Cn1cncn1)c1ccc(F)cc1F"
  assayed_target: "Cytochrome P450 2C19 (Homo sapiens)"
  recorded_metric: "IC50"
  numeric_value: 566
- item_smiles: "C[C@@H](OCC#Cc1ccc(F)cc1F)[C@](O)(Cn1cncn1)c1ccc(F)cc1F"
  assayed_target: "Cytochrome P450 2C19 (Homo sapiens)"
  recorded_metric: "IC50"
  numeric_value: 73
- item_smiles: "C[C@@H](OCC#Cc1ccncc1)[C@](O)(Cn1cncn1)c1ccc(F)cc1F"
  assayed_target: "Cytochrome P450 2C19 (Homo sapiens)"
  recorded_metric: "IC50"
  numeric_value: 394

---

Recorded MIC by entry
- Tested on: Saccharomyces cerevisiae
- assay_remarks: Antifungal activity against recombinant Saccharomyces cerevisiae Y2374 overexpressing CgErg11 assessed as inhibition of fungal growth incubated for 48 hrs by microbroth dilution method
- Assay type: functional
recorded_metric: MIC (µg/mL)

- compound: "C[C@@H](OCC#Cc1ccncc1)[C@](O)(Cn1cncn1)c1ccc(F)cc1F"
  recorded_metric: "MIC"
  numeric_value: 0.063
- compound: "C[C@@H](c1ncncc1F)[C@](O)(Cn1cncn1)c1ccc(F)cc1F [VORICONAZOLE]"
  recorded_metric: "MIC"
  numeric_value: 0.031
- compound: "C[C@@H](OCC#Cc1ccc(C#N)cc1)[C@](O)(Cn1cncn1)c1ccc(F)cc1F"
  recorded_metric: "MIC"
  numeric_value: 0.031
- compound: "CC(=O)N1CCN(c2ccc(OCC3COC(Cn4ccnc4)(c4ccc(Cl)cc4Cl)O3)cc2)CC1 (centres undefined) [KETOCONAZOLE]"
  recorded_metric: "MIC"
  numeric_value: 1
